# Test system: MOLT-4 leukemia
# protocol-notes: NCI-60 one-dose screen, 48 h (100 = growth as untreated, 0 = no growth, -100 = all killed)
# experimental-parameters: 10 µM unless noted
# Experimental: Growth inhibition of the MOLT-4 human tumor cell line is measured as a screen for anti-cancer activity. Cells are grown in 96 well plates and exposed to the test compound for 48 hours. Compounds are tested at a single concentration, which is 10^-5 M for most compounds. The reported endpoint is percent growth (GI% or GIPRCNT), where numbers from 0 - 100% represent growth inhibition, and numbers from -100% - 0 represent cell death. For example, a value of 40 represents 60% growth inhibition. […]
This is part of a sample that, as a whole, favours compounds with a hit. Of some 83,000 tested, about 20% had one in any assay.
measurement-label: growth (%)
Give just the numeric value; % need not be written.

Example entries and their recorded answers appear below.
Reported growth for MOLT-4 leukemia, given COc1cc(C(=O)O)c(O)c(C(C)(C)C)c1 ?
98.1

Another compound to check: O=C(N/N=C\c1ccc(Cl)cc1Cl)c1ccncc1
94.5

Follow-up entry: CNc1ccccc1C(N)=O
117

More entries:
Enter reported growth observed with MOLT-4 leukemia for CCOC(=O)CSCCC#N
91.5

What do you have for CN1CCN(C(=S)S)CC1 ?
105

# repeat for COC1OC(COC(C)=O)C(OC(C)=O)C(OC(C)=O)C1OC(C)=O (configuration not stated)
96.3

Repeat for the following compound: COc1cccc(C(=O)NNC(=O)c2cccc3ccccc23)c1
98.8

Do the same for CC1(C)C2CCC1(C)C1(C2)OCCS1 (configuration not stated) please
99.6
